# credit: patent US20030176479A1

Assayed System: human EP1 receptor (Homo sapiens)
Sequence (P34995 1-402): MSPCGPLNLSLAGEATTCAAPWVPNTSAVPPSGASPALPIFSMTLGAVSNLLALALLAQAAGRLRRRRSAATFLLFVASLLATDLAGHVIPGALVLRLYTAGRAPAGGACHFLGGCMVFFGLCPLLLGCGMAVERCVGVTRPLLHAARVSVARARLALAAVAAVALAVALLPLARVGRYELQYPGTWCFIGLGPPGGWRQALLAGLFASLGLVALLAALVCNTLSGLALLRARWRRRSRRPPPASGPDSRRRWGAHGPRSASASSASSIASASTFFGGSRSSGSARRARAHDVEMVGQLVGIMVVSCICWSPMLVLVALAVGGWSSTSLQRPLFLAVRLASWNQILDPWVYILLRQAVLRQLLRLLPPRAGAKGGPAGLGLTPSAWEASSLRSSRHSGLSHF
Observable: IC50

O=C(O)CCCCCCN1C(=O)CC[C@@H]1CC[C@@H](O)Cc1cccc(Cl)c1
> 3.2 µM
O=C1CCC(CCC(O)Cc2cccc(-c3ccccc3)c2)N1CCCCCCc1nn[nH]n1 (stereo not shown)
> 3.2 µM
O=C1CC[C@H](CC[C@@H](O)Cc2cccc(C(F)(F)F)c2)N1CCCCCCc1nn[nH]n1
> 3.2 µM

Now for the compound whose IC50 we want.
Report measured IC50 on human EP1 receptor (Homo sapiens); entry: O=C1CC[C@H](CCC(O)Cc2cccc(Cl)c2)N1CCCCCCc1nn[nH]n1 (stereo partly shown)
> 3.2 µM

----------
Assay system rat EP4 receptor (Rattus norvegicus, UniProt P43114); read-out recorded as pIC50.
Give bare numbers, as −log10 of the molar value.

O=C1CCC(CCC(O)Cc2cccc(-c3ccccc3)c2)N1CCCCCCc1nn[nH]n1 (centres unmarked)
7.30

Now for the compound whose pIC50 we want.
For O=C1CCC(CCC(O)Cc2ccc(F)cc2)N1CCCCCCc1nn[nH]n1 (centres unmarked) , write its pIC50.
6.29

----------
Assayed System: rat EP4 receptor (Rattus norvegicus)
Sequence (P43114 whole entry): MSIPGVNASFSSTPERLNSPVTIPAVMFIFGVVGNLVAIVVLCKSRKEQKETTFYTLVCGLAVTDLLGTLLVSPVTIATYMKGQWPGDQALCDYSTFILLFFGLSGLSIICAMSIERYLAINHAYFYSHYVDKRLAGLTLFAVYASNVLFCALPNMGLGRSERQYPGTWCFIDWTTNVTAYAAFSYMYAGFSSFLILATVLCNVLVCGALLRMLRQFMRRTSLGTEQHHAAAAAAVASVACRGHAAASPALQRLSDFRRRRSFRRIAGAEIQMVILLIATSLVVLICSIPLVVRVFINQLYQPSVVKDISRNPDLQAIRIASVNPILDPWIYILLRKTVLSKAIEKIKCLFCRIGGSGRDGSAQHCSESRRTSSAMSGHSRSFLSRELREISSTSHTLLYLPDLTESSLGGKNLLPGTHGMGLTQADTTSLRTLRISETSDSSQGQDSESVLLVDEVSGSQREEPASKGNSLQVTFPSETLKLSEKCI
Test Method Notes: Cyclic AMP elevation in 293S cell lines stably overexpressing recombinant rat EP4 receptors
Experimental Parameters: 293S cells expressing rat EP4, 1 mM IBMX, 12 minutes at 37° C.; read-out: EC50 in the cAMP (rat EP4) elevation assay
Observable: pEC50
One number for each entry, as −log10 of the molar value.

Guide cases for pEC50, answers given:
O=C1CC[C@H](CC[C@@H](O)Cc2cccc(Cl)c2)N1CCCCCCc1nn[nH]n1
7.61
O=C(O)CCCCCCN1C(=O)CC[C@@H]1CC[C@@H](O)Cc1cccc(Cl)c1
8.06
O=C1CC[C@H](CCC(O)Cc2cccc(Cl)c2)N1CCCCCCc1nn[nH]n1 (some centres unmarked)
7.48
O=C1CC[C@H](CC[C@@H](O)Cc2cccc(C(F)(F)F)c2)N1CCCCCCc1nn[nH]n1
7.15
O=C1CCC(CCC(O)Cc2cccc(F)c2)N1CCCCCCc1nn[nH]n1 (centres unmarked)
6.70

Give one value of pEC50 per listed compound.
1. O=C(O)CCCCCCN1C(=O)CC[C@@H]1CC[C@@H](O)Cc1cccc(C(F)(F)F)c1
2. O=C1CCC(CCC(O)Cc2cccc(-c3ccccc3)c2)N1CCCCCCc1nn[nH]n1 (centres unmarked)
3. O=C(O)CCCCCCN1C(=O)CCC1CCC(O)Cc1ccccc1 (centres unmarked)

1: 7.88; 2: 6.76; 3: 7.49

----------
Assay system rat EP2 receptor (Rattus norvegicus, UniProt Q62928); read-out recorded as pIC50.
Numbers only, as −log10 of the molar value.

Give one value of pIC50 per listed molecule.
1. O=C(O)CCCCCCN1C(=O)CC[C@@H]1CC[C@@H](O)Cc1cccc(C(F)(F)F)c1
2. O=C1CCC(CCC(O)Cc2cccc(-c3ccccc3)c2)N1CCCCCCc1nn[nH]n1 (stereo not drawn)

1. 5.56
2. 5.52

----------
Target chain: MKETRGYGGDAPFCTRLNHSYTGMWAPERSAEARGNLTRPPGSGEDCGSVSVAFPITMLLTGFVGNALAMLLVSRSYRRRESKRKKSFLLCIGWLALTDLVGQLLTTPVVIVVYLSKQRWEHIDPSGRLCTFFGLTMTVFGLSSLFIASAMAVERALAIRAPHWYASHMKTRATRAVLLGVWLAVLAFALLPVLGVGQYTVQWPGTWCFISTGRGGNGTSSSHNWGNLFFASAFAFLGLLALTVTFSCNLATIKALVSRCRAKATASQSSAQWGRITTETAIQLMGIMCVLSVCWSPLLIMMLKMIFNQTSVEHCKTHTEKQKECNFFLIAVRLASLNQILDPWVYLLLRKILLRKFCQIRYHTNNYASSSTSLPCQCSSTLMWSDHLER
Observable: IC50

Guide cases for IC50, answers given:
O=C1CC[C@H](CC[C@@H](O)Cc2cccc(C(F)(F)F)c2)N1CCCCCCc1nn[nH]n1
> 3.2 µM
O=C(O)CCCCCCN1C(=O)CC[C@@H]1CC[C@@H](O)Cc1cccc(Cl)c1
> 3.2 µM

For `O=C(O)CCCCCCN1C(=O)CC[C@@H]1CC[C@@H](O)Cc1cccc(C(F)(F)F)c1` , write its IC50.
> 3.2 µM
